B1: CASP6 (parent)
chain: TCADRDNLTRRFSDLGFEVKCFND

# Variants of: B1
# assay_name: protein stability index of a GFP-peptide fusion (GPS, HEK-293T) (PSI 1-6); higher = more stable;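 further: lentivirally expressed fusions sorted by FACS into six bins by GFP to DsRed ratio, PSI derived from sequencing read proportions per bin multiplied by bin number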
# particulars: c terminus: a fixed tail appended
Would you mind telling me the reported protein stability index of each entry?
Note: the reply should be a number with no unit written.

# input For the variant shown here, TCADRDNLTRRFSDLGFEVKCSND , give the reported protein stability index.
# output 3.84

# input For the variant shown here, TCADRDQLTRRFSDLGFEVKCFND , give the reported protein stability index.
# output 2.92

# input For the variant shown here, TCASRDNLTRRFSDLGFEVKCFND , give the reported protein stability index.
# output 3.02

# input For the variant shown here, TCEDRDNLTRRFSDLGFEVKCFND , give the reported protein stability index.
# output 3.65

# input For the variant shown here, TCADRDNLTRRFSDLGFEVKCFNW , give the reported protein stability index.
# output 2.14

# input For the variant shown here, PCADRDNLTRRFSDLGFEVKCFND , give the reported protein stability index.
# output 3.67

# input For the variant shown here, TCADRDNLTRRFSDLGFEVKCKND , give the reported protein stability index.
# output 4.72
